Sourced from patent US10266513B2

- TARGET OR TEST SYSTEM: human full-length BTK Kinase (Homo sapiens (Human))
QUANTITY MEASURED: pIC50
When answering, recall that pIC50 equals minus log10 of the concentration in mol/L, and write that number alone.

// known answers, use as guide
[[record]]
compound = "N#CN1CCCC(n2nc(-c3cccc(Oc4ccc(OC(F)(F)F)cc4)c3)c(C(N)=O)c2N)C1 (stereo not shown) [Example 95]"
target_or_test_system = "human full-length BTK Kinase (Homo sapiens (Human))"
readout_number = 7.10

[[record]]
compound = "N#CN1CCCC(n2nc(-c3ccc(Oc4ccc(F)c(Cl)c4)cc3)c(C(N)=O)c2N)C1 (stereo not shown) [Example 58]"
target_or_test_system = "human full-length BTK Kinase (Homo sapiens (Human))"
readout_number = 8.74

[[record]]
compound = "NC(=O)c1c(-c2ccc(Oc3ccc(Cl)cn3)cc2)nn(C2CCCN(C(=O)/C=C/CF)C2)c1N (stereo not shown) [Example 160]"
target_or_test_system = "human full-length BTK Kinase (Homo sapiens (Human))"
readout_number = 8.26


As a next step, examine the compound that follows.
Problem: Give the measured pIC50 of Cc1cc(Oc2ccc(-c3nn(C4CCCN(C#N)C4)c(N)c3C(N)=O)cc2)ccc1F (stereo not shown) [Example 31] .
Result: 8.55

====

Read-out record for human full-length BTK Kinase (Homo sapiens (Human)): pIC50
When answering, recall that pIC50 equals minus log10 of the concentration in mol/L, and write that number alone.

// known answers, use as guide
[[record]]
compound = "N#CN1CCCC(n2nc(-c3ccc(Oc4ccccc4OC(F)(F)F)cc3)c(C(N)=O)c2N)C1 (stereo not shown)"
readout_number = 8.48

[[record]]
compound = "C[C@@H]1CC[C@H](n2nc(-c3ccc(Oc4ccc(F)cc4F)cc3)c(C(N)=O)c2N)CN1C#N"
readout_number = 6.40

[[record]]
compound = "Cc1ccc(Oc2ccc(-c3nn(C4CCCN(C#N)C4)c(N)c3C(N)=O)cc2)cc1C (single isomer, unassigned) [Example 17]"
readout_number = 9.40

[[record]]
compound = "C[C@@H](O)/C=C/C(=O)N1CCC[C@@H](n2nc(-c3ccc(Oc4ccc(F)cc4F)cc3)c(C(N)=O)c2N)C1"
readout_number = 7.28

[[record]]
compound = "N#CN1CCCC(n2nc(-c3ccc(Oc4ccc(F)cc4F)cc3)c(C(N)=O)c2N)C1 (stereo not shown) [Example 25]"
readout_number = 8.66


Problem: So what pIC50 did N#CN1CCCC(n2nc(-c3ccc(Oc4cc(F)cc(F)c4)cc3)c(C(N)=O)c2N)C1 (stereo not shown) get with human full-length BTK Kinase (Homo sapiens (Human))?
Result: 8.14

Problem: So what pIC50 did CC(C)c1ccc(Oc2ccc(-c3nn(C4CCCN(C#N)C4)c(N)c3C(N)=O)cc2)cc1 (stereo not shown) get with human full-length BTK Kinase (Homo sapiens (Human))?
Result: 8.30

====

- System: Human B cells
- ASSAY PROTOCOL: Human Primary B Cell Proliferation Assay (3H-thymidine incorporation, anti-human IgM stimulated)
- Type: cell-based
- TEST SETTINGS: B-cell, purified human B cells, 50 μg/mL anti-human IgM F(ab')2, 72 hours
// values below are reported pIC50
When answering, recall that pIC50 equals minus log10 of the concentration in mol/L, and write that number alone.

[[record]]
molecule = "N#CN1CCCC(n2nc(-c3ccc(Oc4ccc(F)cc4F)cc3)c(C(N)=O)c2N)C1 (single isomer, unassigned)"
quantity_measured = "pIC50"
readout_number = 8.57

[[record]]
molecule = "NC(=O)c1c(-c2ccc(Oc3ccc(Cl)cn3)cc2)nn([C@@H]2CCCN(C(=O)/C=C/C(F)F)C2)c1N"
quantity_measured = "pIC50"
readout_number = 8.55

[[record]]
molecule = "NC(=O)c1c(-c2ccc(Oc3ccc(Cl)cc3)cc2)nn([C@@H]2CCCN(C(=O)/C=C/CO)C2)c1N"
quantity_measured = "pIC50"
readout_number = 8.80


Problem: Give the measured pIC50 of NC(=O)c1c(-c2ccc(Oc3ccc(F)cc3F)cc2)nn([C@@H]2CCCN(C(=O)/C=C/C(F)F)C2)c1N .
Result: 9.08

====

- TARGET OR TEST SYSTEM: human full-length BTK Kinase (Homo sapiens (Human), UniProt Q06187)
- Sequence (Q06187 whole entry): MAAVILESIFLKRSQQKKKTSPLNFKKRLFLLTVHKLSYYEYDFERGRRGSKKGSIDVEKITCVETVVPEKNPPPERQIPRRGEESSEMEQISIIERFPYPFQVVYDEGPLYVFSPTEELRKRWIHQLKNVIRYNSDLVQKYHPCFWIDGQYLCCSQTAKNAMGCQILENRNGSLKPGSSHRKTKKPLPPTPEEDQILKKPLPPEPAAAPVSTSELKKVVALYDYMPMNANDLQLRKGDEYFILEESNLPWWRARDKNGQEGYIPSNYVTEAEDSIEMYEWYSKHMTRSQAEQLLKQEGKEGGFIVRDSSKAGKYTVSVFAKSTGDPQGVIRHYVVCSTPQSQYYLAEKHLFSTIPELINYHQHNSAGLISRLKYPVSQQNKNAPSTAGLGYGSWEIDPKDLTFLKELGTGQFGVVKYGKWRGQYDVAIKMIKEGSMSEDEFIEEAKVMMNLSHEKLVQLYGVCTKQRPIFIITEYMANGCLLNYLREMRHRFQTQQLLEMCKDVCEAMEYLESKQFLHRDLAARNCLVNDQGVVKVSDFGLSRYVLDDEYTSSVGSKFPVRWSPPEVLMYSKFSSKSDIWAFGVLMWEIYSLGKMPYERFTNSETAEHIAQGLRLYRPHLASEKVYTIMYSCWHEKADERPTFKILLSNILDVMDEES
Under this convention, met denotes IC50 strictly below 20 nM and not met denotes IC50 at or above 20 nM.

Take a look at these entries with their results.
[[record]]
compound = "CC(C)(O)/C=C/C(=O)N1CCC[C@@H](n2nc(-c3ccc(Oc4ccc(F)cc4F)cc3)c(C(N)=O)c2N)C1"
assigned_label = "not met"

[[record]]
compound = "Cc1ccc(Oc2ccc(-c3nn(C4CCCN(C#N)C4)c(N)c3C(N)=O)cc2)nc1 (single isomer, unassigned) [Example 114]"
assigned_label = "met"

[[record]]
compound = "Cc1cccc(Cc2ccc(-c3nn([C@@H]4CCCN(C#N)C4)c(N)c3C(N)=O)cc2)c1"
assigned_label = "met"

[[record]]
compound = "Cc1cccc(Cc2ccc(-c3nn([C@H]4CCCN(C#N)C4)c(N)c3C(N)=O)cc2)c1"
assigned_label = "not met"


Problem: Given Cc1ccc(Oc2cccc(-c3nn(C4CCCN(C#N)C4)c(N)c3C(N)=O)c2)cc1 (stereo not shown) , is recorded IC50 strictly lower than 20 nM?
Result: not met

Problem: Given N#CN1CCC[C@H](n2nc(-c3ccc(Cc4ccccc4F)cc3)c(C(N)=O)c2N)C1 , is recorded IC50 strictly lower than 20 nM?
Result: met

Problem: Given C=CC(=O)N1CCC[C@@H](n2nc(-c3ccc(Oc4ccc(Cl)cn4)cc3)c(C(N)=O)c2N)C1 , is recorded IC50 strictly lower than 20 nM?
Result: met

====

Read-out record for human full-length BTK Kinase (Homo sapiens (Human)): IC50
Show the value, then the unit it is measured in.

// known answers, use as guide
[[record]]
compound = "N#CCN1CCC(n2nc(-c3ccc(Oc4ccccc4)cc3)c(C(N)=O)c2N)C1 (stereo not shown)"
result = "16.5 nM"

[[record]]
compound = "C=C(F)C(=O)N1CCC[C@@H](n2nc(-c3ccc(Oc4ccc(Cl)cc4)cc3)c(C(N)=O)c2N)C1"
result = "5 nM"

[[record]]
compound = "N#C/C=C/C(=O)N1CCC[C@@H](n2nc(-c3ccc(Oc4ccc(F)cc4F)cc3)c(C(N)=O)c2N)C1"
result = "1.5 nM"


As a next step, examine the compound that follows.
Problem: Give the measured IC50 of N#CN1CCCC(n2nc(-c3cccc(Oc4ccccc4)c3)c(C(N)=O)c2N)C1 (single isomer, unassigned) [Example 90] .
Result: 3.2 nM

====

- TARGET OR TEST SYSTEM: human EGFR kinase domain (Homo sapiens (Human))
- Sequence (P00533 712-979): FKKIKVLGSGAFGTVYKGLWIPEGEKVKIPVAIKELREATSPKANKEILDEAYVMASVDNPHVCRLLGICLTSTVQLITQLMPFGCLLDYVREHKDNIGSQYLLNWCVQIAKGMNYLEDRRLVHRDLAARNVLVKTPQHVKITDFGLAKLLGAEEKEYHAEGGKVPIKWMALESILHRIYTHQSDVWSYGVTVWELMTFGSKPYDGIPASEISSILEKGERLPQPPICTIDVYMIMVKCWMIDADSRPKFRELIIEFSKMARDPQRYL
QUANTITY MEASURED: pIC50
When answering, recall that pIC50 equals minus log10 of the concentration in mol/L, and write that number alone.

[[record]]
compound = "NC(=O)c1c(-c2ccc(Oc3ccc(F)cc3F)cc2)nn([C@@H]2CCCN(C(=O)/C=C/CO)C2)c1N"
quantity_measured = "pIC50"
readout_number = 4.92

[[record]]
compound = "NC(=O)c1c(-c2ccc(Oc3ccc(Cl)cc3)cc2)nn([C@@H]2CCCN(C(=O)/C=C/CO)C2)c1N"
quantity_measured = "pIC50"
readout_number = 5.66

[[record]]
compound = "NC(=O)c1c(-c2ccc(Oc3cccc(C(F)(F)F)n3)cc2)nn([C@@H]2CCCN(C(=O)/C=C/CF)C2)c1N"
quantity_measured = "pIC50"
readout_number = 5.47

[[record]]
compound = "N#CN1CCCC(n2nc(-c3ccc(Oc4ccc(F)cc4F)cc3)c(C(N)=O)c2N)C1 (single isomer, unassigned)"
quantity_measured = "pIC50"
readout_number = 4.77

[[record]]
compound = "NC(=O)c1c(-c2ccc(Oc3ccc(Cl)cn3)cc2)nn(C2CCCN(C(=O)/C=C/CF)C2)c1N (centres unmarked)"
quantity_measured = "pIC50"
readout_number = 6.05


Problem: So what pIC50 did C=CC(=O)N1CCC[C@H](n2nc(-c3ccc(Oc4ccc(F)cc4F)cc3)c(C(N)=O)c2N)C1 get with human EGFR kinase domain (Homo sapiens (Human))?
Result: 6.67

Problem: So what pIC50 did C=CC(=O)N1CCC[C@@H](n2nc(-c3ccc(Oc4ccc(Cl)cn4)cc3)c(C(N)=O)c2N)C1 get with human EGFR kinase domain (Homo sapiens (Human))?
Result: 7.53

Problem: So what pIC50 did C=CC(=O)N1CCC[C@H](n2nc(-c3ccc(Oc4ccccc4)cc3)c(C(N)=O)c2N)C1 get with human EGFR kinase domain (Homo sapiens (Human))?
Result: 6.10

Problem: So what pIC50 did NC(=O)c1c(-c2ccc(Oc3ccc(F)cc3F)cc2)nn([C@@H]2CCCN(C(=O)/C=C/CF)C2)c1N get with human EGFR kinase domain (Homo sapiens (Human))?
Result: 5.66

Problem: So what pIC50 did C=CC(=O)N1CCC[C@@H](n2nc(-c3ccc(Oc4cccc(C(F)(F)F)n4)cc3)c(C(N)=O)c2N)C1 get with human EGFR kinase domain (Homo sapiens (Human))?
Result: 7.05
